IC90 overview
Tested on: PANC-1 (pancreatic cancer)
Assay: Solid tumor cell growth inhibition, MTT, 72 h (Example 7)
Assay type: cell-based, human
Conditions: Homo sapiens; 72 h, MTT, PANC-1
Respond numerically; units are µg/mL and should not be typed.

Per the reported PANC-1 (pancreatic cancer) data, COc1ccc2cc1Oc1ccc(cc1)C[C@H]1c3cc(c(OC)cc3CCN1C)Oc1c(OC)c(OC)c(COC(=O)c3cccs3)c3c1[C@H](C2)N(C)CC3 has IC90 of 15

Per the reported PANC-1 (pancreatic cancer) data, COc1ccc2cc1Oc1ccc(cc1)C[C@H]1c3cc(c(OC)cc3CCN1C)Oc1c(OC)c(OC)c(CN3CCN(C(C)C)CC3)c3c1[C@H](C2)N(C)CC3 has IC90 of 9.93
